# reported IC50; entries follow
- assayed_system: Human FP Receptor (Homo sapiens (Human), UniProt P43088)
- Sequence (P43088 whole entry): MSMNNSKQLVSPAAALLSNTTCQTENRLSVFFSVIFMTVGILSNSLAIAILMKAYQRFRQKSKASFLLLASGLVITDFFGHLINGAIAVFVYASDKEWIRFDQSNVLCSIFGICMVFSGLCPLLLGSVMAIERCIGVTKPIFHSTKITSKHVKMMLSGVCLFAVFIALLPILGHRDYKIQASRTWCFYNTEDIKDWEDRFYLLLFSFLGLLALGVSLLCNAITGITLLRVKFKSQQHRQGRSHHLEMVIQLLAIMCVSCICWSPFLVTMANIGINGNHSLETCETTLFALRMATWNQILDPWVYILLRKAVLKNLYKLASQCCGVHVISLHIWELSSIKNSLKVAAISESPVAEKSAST
- protocol: In vitro test of inhibition of human FP receptor activity, variant B-1B (PGF2α-induced calcium flux in recombinant FP-expressing CHO cells with GCaMP6)
- Format: cell-based
- condition_notes: recombinant FP-expressing CHO cells with GCaMP6, calcium flux induced by 3 nM PGF2α, some mean values from multiple determinations
readout_kind: IC50 (nM)

1) COCSc1cc(C(=O)O)ccc1NC(=O)c1c(C)c(-c2ccccc2)nc2ccc(Br)cc12 [Example 52] ... 6
2) Cc1c(-c2ccccc2)nc2ccc(Br)cc2c1C(=O)Nc1ccc(C(=O)O)cc1F [Example 69] ... 59
3) Cc1c(-c2ccccc2)nc2ccc(Br)cc2c1C(=O)Nc1ccc(C(=O)NS(=O)(=O)N(C)C)cc1F [Example 68] ... 182
4) Cc1c(-c2ccccc2)nc2ccc(Br)cc2c1C(=O)Nc1ccc(C(=O)NS(=O)(=O)C(F)(F)F)cc1F [Example 67] ... 134
5) O=C(O)c1ccc(NC(=O)c2c(F)c(-c3ccccc3)nc3ccc(Br)cc23)c(F)c1 [Example 73] ... 98
6) Cc1c(-c2ccccc2)nc2ccc(C(C)(C)C)cc2c1C(=O)Nc1ccc(C(=O)O)cc1F [Example 61] ... 79
7) Cc1c(-c2ccccc2)nc2ccc(Br)cc2c1C(=O)Nc1ccc(C(=O)O)cc1F [Example 7] ... 34
8) Cc1c(-c2ccccc2)nc2ccc(Br)cc2c1C(=O)Nc1ccc(C(=O)O)c(F)c1F [Example 65] ... 60
9) Cc1c(-c2ccccc2)nc2ccc(Br)cc2c1C(=O)Nc1ccc(C(=O)O)cc1F [Example 50] ... 44
